- Tested on: MCF7 breast
- ASSAY_REMARKS: NCI tumour cell line growth inhibition, 48 h
VALUE_KIND: TGI

The following compounds have reported results that may help.
>  <COMPOUND>
S=C1CC(c2ccccc2)Sc2ccc(Cl)cc2N1 (configuration not stated)

>  <VALUE_KIND>
TGI

>  <OBSERVED_VALUE>
> 100 µM

$$$$
>  <COMPOUND>
CC1=C[C@@H](C)C[C@]2(C)CC[C@H](O2)[C@]23CC[C@](C(=O)O)(C[C@H](O2)[C@@H]2O[C@@](C)(CC2=O)[C@@H](O)[C@H]2CC[C@@]4(CCC[C@@H](O4)[C@H](C)C(=O)O[C@H]4C[C@H]([C@]5(O)OCC[C@H](C)[C@@H]5O)O[C@H]4C=C1)O2)O3

>  <VALUE_KIND>
TGI

>  <OBSERVED_VALUE>
> 10 µM

$$$$
>  <COMPOUND>
COc1c(O)c(O)cc2c1-c1ccc(OC)c(=O)cc1C(NC(C)=O)CC2 (configuration not stated)

>  <VALUE_KIND>
TGI

>  <OBSERVED_VALUE>
11.9 µM

$$$$
>  <COMPOUND>
COC(=O)C1(Cc2ccc3c(c2)CCC3)Cc2ccccc2C1=O (configuration not stated)

>  <VALUE_KIND>
TGI

>  <OBSERVED_VALUE>
70.1 µM

$$$$
>  <COMPOUND>
COC(=O)C1OC(O[C@H]2CC[C@]3(C)[C@H]4CC=C5[C@@H]6CC(C)(C)CC[C@]6(C(=O)OC6OCC(O)C(O)C6OC6OC(C)C(OC7OCC(OC8OCC(O)C(O)C8O)C(O)C7O)C(O)C6O)[C@H](O)C[C@@]5(C)[C@]4(C)CC[C@H]3C2(C)C)C(O)C(O)C1O (some centres not stated)

>  <VALUE_KIND>
TGI

>  <OBSERVED_VALUE>
6.63 µM

$$$$
>  <COMPOUND>
O=c1[nH]c(=O)n([C@H]2CCCO2)cc1F

>  <VALUE_KIND>
TGI

>  <OBSERVED_VALUE>
> 5000 µM

$$$$

Query :: Look at this compound and give its reported TGI. COC(=O)C1=C(O)C(C(=O)OC)[C@@]2(O)[C@@H](C(=O)OC)[C@H](C)[C@@H](C)[C@@H]1[C@@H]2C(=O)OC (some centres not stated)
Result :: > 100 µM

Query :: Entry `Cn1ccnc1Sc1ccc(C=Nc2ccc3nc(SCC(=O)NC4CCCCC4)sc3c2)cc1[N+](=O)[O-]` please
Result :: > 100 µM

Query :: Entry `CCCCC#CS(=O)(=O)C(F)(F)F` please
Result :: > 100 µM

Query :: Entry `CC/C=C/C/C=C/C/C=C/C/C=C/C/C=C/C/C=C/CCC(=O)Nc1ccn([C@@H]2O[C@H](CO)[C@@H](O)C2(F)F)c(=O)n1` please
Result :: 17.2 µM

Query :: Entry `Nc1nc(Nc2ccc(Cl)cc2)sc1C(=O)c1cccs1` please
Result :: > 100 µM

Query :: Entry `N#CC(=N)c1ncn(-c2ccccc2N)c1N` please
Result :: > 100 µM

Query :: Entry `C=C(C)[C@@]1(O[Si](C)(C)C)CCCC[C@@H]1CC(Sc1ccccc1)Sc1ccccc1` please
Result :: 27.6 µM

Query :: Entry CCOC(=O)[C@@H]1ON2O[C@@H](OC3CCCC3(c3ccccc3)c3ccccc3)C[C@H]3OC(=O)[C@@H]1C32 (some centres not stated) please
Result :: 52.1 µM
